Assay: qHTS Screen for Compounds that Selectively Target Cancer Cells with p53 Mutations: Cytotoxicity of p53ts Cells at the Permissive Temperature; further: nearly all actives have a fitted effect of over 55% in size
Settings: H1299-p53A138V at 32C, ATP luminescence viability, 24 h; series mostly up to 46.1 µM
Description: NIH Chemical Genomics Center [NCGC] NIH Molecular Libraries Screening Centers Network [MLSCN] […] Concentration-responses of all the compounds in the library collection were determined in qHTS using the cell lines and temperature conditions as above. NCGC Assay Protocol Summary: Both the H1299-p53A138V and H1299-neo cell lines were provided by Dr.Yi Sun, a PI at the University Michigan. […] AC50 values were determined from concentration-response data modeled with the standard Hill equation. […]
In all, about 130,000 compounds went through this assay and about 1,200 (0.92%) were called active. Roughly 3% stayed inconclusive and do not appear here. The call rests on the fitted dose curve; in most records, active means well fitted cell-killing curve with a large enough effect; inconclusive means small, poorly fitted or top-dose-only effect; inactive means no such curve, though single readings can be large or run the other way. The sample as a whole holds a higher share of actives than the screen did.
Outcome codes: active, inactive

COc1ccc(C2=NC3(CCCCC3)N(CC(=O)Nc3ccc(C(C)C)cc3)C2=O)cc1    inactive
COc1ccc2c(c1)CCc1c(C(=O)Nc3cc(C)ccc3O)noc1-2    inactive
CN(c1nc2ccccc2n2c(-c3ccco3)nnc12)S(=O)(=O)c1ccccc1    inactive
CCOc1ccc(-c2nonc2NC(=O)c2oc3ccc(C)cc3c2C)cc1OCC    inactive
Cc1ccc(S(=O)(=O)c2nc(-c3ccco3)oc2SCC(=O)Nc2ccc(F)cc2)cc1    inactive
Cc1nn(CC(=O)NCCc2ccccc2)c(=O)c2c1sc1ccccc12    inactive
COc1cn(CC(=O)Nc2cccc(C)c2C)c(CN2CCCCC2)cc1=O    inactive
Cc1ccc2oc(C(=O)Nc3ccc(S(=O)(=O)N4CCCCCC4)cc3)cc(=O)c2c1    inactive
CC(C)c1ccc(NC(=O)CN(C)S(=O)(=O)c2ccc3c(c2)c(=O)n(C)c(=O)n3C)cc1    inactive
Cc1nn(CC(=O)N2CCN(c3cccc(C(F)(F)F)c3)CC2)c(=O)c2cc3sccc3n12    inactive
O=C1N(Cc2ccccc2)c2ccc(Cl)cc2C1(O)c1c[nH]c2ccccc12 (configuration not stated)    inactive
CCC(=O)NC(=Nc1nc2ccccc2s1)NC(=O)CC    active
Cn1c(-c2ccco2)nc2cc3ccccc3cc21    active
O=C(O)CSCc1nc2ccccc2s1    inactive
COC(=O)c1cc(NC(=O)CCc2c(C)nc3c4c(C)cc(C)nc4nn3c2C)cc(C(=O)OC)c1    inactive
COc1ccc(-n2c(=O)c3c(c4cc(OC)ccc4n3C)n(Cc3cccc(C)c3)c2=O)cc1    inactive
NC(=O)c1ccccc1NC(=O)c1ccccc1F    inactive
CCc1ccc2ncc3c(-c4ccc(C)cc4)nn(CC(=O)NCc4ccccc4)c3c2c1    inactive
COc1ccc(CNC(=O)c2ccc3c(O)c(S(=O)(=O)c4ccccc4)c(=O)[nH]c3c2)cc1    inactive
O=C1CCCc2cc(S(=O)(=O)N3CCCC(C(=O)NCc4ccccc4)C3)ccc2N1 (configuration not stated)    inactive
O=C(Nc1nc2c(s1)CCCC2)c1ccccc1F    active
Cc1ccc2nc(COc3cccc(NC(=O)Nc4ccc(C)c(Cl)c4)c3)cc(=O)n2c1    inactive
CCN(CCCCOC(=O)c1ccc(OC)c(OC)c1)C(C)Cc1ccc(OC)cc1 (configuration not stated)    inactive
O=C(CSc1oc(-c2ccc(F)cc2)nc1S(=O)(=O)c1ccc(Br)cc1)NC1CCCCC1    inactive
Cc1ccsc1C(=O)OCC(=O)c1cc(C)n(CC2CCCO2)c1C (configuration not stated)    active
CC(C)(C)c1ccc(C(=O)NCC(c2ccc(Cl)cc2)N2CCOCC2)cc1 (configuration not stated)    inactive
Cc1sc2ncn(CC(=O)N3CCN(c4ccc(F)cc4)CC3)c(=O)c2c1S(=O)(=O)N1CCN(c2ncccn2)CC1    inactive
O=C(Nc1nnc(S(=O)(=O)N2CCCCCC2)s1)c1cccc(Br)c1    inactive
COc1cccc(N2CC(NC(=O)/C=C\c3ccccc3)CC2=O)c1 (configuration not stated)    inactive
CCN1CCN(Cc2c(O)ccc3oc(C)c(C(=O)Nc4ccc(C)cc4C)c23)CC1    inactive
COc1ccc(C(=O)Nc2nncs2)c(OC)c1    inactive
CCn1c(C)c(C)c2cc(C(=O)N3CCN(c4cccc(C)c4C)CC3)ccc21    inactive
Cc1ccc(C(=O)Nc2ccc3[nH]c(=O)c(=O)[nH]c3c2)cc1    inactive
COc1ccc(N(C)C(=O)C2CCN(S(=O)(=O)c3cc(Br)cc4c3N(C(C)=O)CC4)CC2)cc1    inactive
Cc1ccc(-c2nc(S(=O)(=O)c3ccc(C)cc3)c(N3CCCCCC3)o2)cc1    inactive
Cc1ccc(Cl)cc1NC(=O)Cc1ccc(-n2c(C)nc3cccnc32)cc1    inactive
O=C(CN1C(=O)c2cccnc2Oc2ccc(Cl)cc21)NCCc1ccccc1    inactive
Cc1ccc2nc(N3CCN(c4cccc(Cl)c4)CC3)c3nnnn3c2c1    inactive
COC(=O)c1sc(NC(=O)c2csc3c2CCCC3)nc1C    inactive
CN1C(=O)c2ccccc2Sc2ccc(NC(=O)Cc3ccc(Cl)cc3)cc21    inactive
C/C(=C\C(=O)c1ccccc1)Nc1cccc(O)c1    active
Cc1nn2c(=O)cc(COC(=O)c3ccccc3NC(=O)COc3ccccc3C)nc2s1    inactive
